Readout Kind: melting point

Examples from the recorded data:
CCC(CC)O[C@@H]1C=C(C(=O)O)C[C@H](NS(=O)(=O)c2ccccc2N)[C@H]1NC(C)=O	161.8 to 164 °C
CCC(CC)O[C@@H]1C=C(C(=O)O)C[C@H](NS(=O)(=O)c2ccc([N+](=O)[O-])cc2)[C@H]1NC(C)=O	187.4 to 189.2 °C
CCCCCS(=O)(=O)N[C@H]1CC(C(=O)O)=C[C@@H](OC(CC)CC)[C@@H]1NC(C)=O	179.1 to 182.8 °C

Please find the next compound below.
What does the data say about its melting point? Entry: CCC(CC)O[C@@H]1C=C(C(=O)O)C[C@H](NS(=O)(=O)c2cccc([N+](=O)[O-])c2)[C@H]1NC(C)=O
114.3 to 115.9 °C
